Value source: patent US20200369765A1

molecular target: T1, Human Siglec-9 mutant M11 (human, UniProt Q9Y336 18-463); assay: flow cytometry, HEK293T transfectants; '-' indicates full loss of binding
T1 construct: Expressed on HEK293T cells; also called Mutant 11
T1 sequence (Q9Y336 other isoform, or with tags, fused parts or gaps mutant): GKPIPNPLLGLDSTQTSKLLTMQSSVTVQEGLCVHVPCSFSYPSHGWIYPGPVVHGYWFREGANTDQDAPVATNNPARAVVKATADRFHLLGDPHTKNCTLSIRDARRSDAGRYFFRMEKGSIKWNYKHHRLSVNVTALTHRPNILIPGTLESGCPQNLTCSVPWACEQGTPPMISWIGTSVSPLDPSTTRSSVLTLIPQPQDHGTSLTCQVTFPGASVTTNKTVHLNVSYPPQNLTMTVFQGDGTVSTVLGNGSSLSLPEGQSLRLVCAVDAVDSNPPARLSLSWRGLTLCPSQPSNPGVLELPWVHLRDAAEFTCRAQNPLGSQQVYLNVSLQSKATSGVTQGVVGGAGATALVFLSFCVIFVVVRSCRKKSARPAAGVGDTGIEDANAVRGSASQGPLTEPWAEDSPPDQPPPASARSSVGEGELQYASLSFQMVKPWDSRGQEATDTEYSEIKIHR
Reported endpoint: binding result

Binder	Reported endpoint	Result
Fab.F (Fab of mAbF) (Fab, V domains shown) VH: QVQLQQSGPEVVRPGVSVKISCKGSGYTFTDYSMHWVKQSHAKSLEWIGVISTYNGNTNYNQKFKGKATMTVDKSSSTAYMELARLTSEDSAIYYCARRGYYGSSSWFGYWGQGTLVTVSA VL: DIVMTQSQKFMSTSVGDRVSVTCKASQNVGTDVAWYQQKPGQSPEALIYSASYRYSGVPDRFTGSGSGADFTLTISNVQSEDLAEYFCQQYNSFPYTFGGGTKLEIK	binding result	no binding
mAb1 (antibody, human IgG1, V domains shown) VH: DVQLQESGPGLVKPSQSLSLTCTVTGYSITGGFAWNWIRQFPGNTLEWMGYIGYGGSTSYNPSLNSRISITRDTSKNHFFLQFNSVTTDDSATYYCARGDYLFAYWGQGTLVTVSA VL: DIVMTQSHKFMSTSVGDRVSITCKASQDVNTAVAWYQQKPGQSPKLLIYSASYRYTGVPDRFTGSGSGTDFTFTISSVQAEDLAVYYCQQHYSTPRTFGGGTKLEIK	binding result	no binding
Fab.E (Fab of mAbE) (Fab, V domains shown) VH: DVQLVESGGGLVQPGGSRKLSCAASGFTFSTFGMHWVRQAPEKGLEWVAYISSGSNAIYYADTVKGRFTISRDNPKNTLFLQMTSLRSEDTAMYYCASPGYGAWFAYWGQGTLVTVSA VL: ENVLTQSPAIMSASPGEKVTMTCRASSSVSSAYLHWYQQKSGASPKLWIYSTSNLASGVPARFSGSGSGTSYSLTISSVEAEDAATYYCQQYSAYPYTFGGGTKLEIK	binding result	no binding
